Data provenance: ChEMBL document CHEMBL1201862

System: SNB-19
Assay: NCI tumour cell line growth inhibition, 48 h
Activity calls are given as the source filed them. Cut-off read from the data, not from the text of the source: active = GI50 up to about 1.1 µM and inactive = higher.
Classes used: active, inactive

# MOLECULE, LABEL VALUE
rows = [
    ("CC#CC(O)(C(=O)OC1CCC2CCC1N2C)C1CCCC1 (stereo not given)", "inactive"),
    ("CC(=O)NC(CSC1=C2NC(=O)\\C=C/C=C\\C=C/C(C)C(O)CC(=O)/C(C)=C\\CC(O)/C=C\\C(C)C(O)C(C)C=C(C)C(=O)c3c(O)c(C)cc(c3C1=O)C2=O)C(=O)O (stereo not given)", "inactive"),
    ("C/C(CCOC1CCCCO1)=C(\\C)[Si](C)(C)C (stereo not given)", "inactive"),
    ("Clc1ccc2[nH]c(CC3CCCC3)nc2c1", "inactive"),
    ("CCC1(O)C(=O)OCc2c1cc1n(c2=O)Cc2cc3ccc(C=O)cc3nc2-1 (stereo not given)", "inactive"),
    ("Clc1ccccc1-c1nc(-c2ccncc2)no1 [PIFEXOLE]", "inactive"),
    ("O=C1CCCc2cc3c(cc21)CCC3C(=O)O (stereo not given)", "inactive"),
    ("COc1nc2c(c(=O)n1C)N[C@H]1[C@H](OC(C)=O)[C@@H](OC(C)=O)CO[C@H]1N2", "inactive"),
    ("C=C1COC(O)(C2OCOC(C3CC(=O)NC(=O)C3)C2O)C1C (stereo not given)", "active"),
    ("COc1ccc(/C=C\\c2cc(OC)c(OC)c(OC)c2)cc1", "active"),
]

* * *

System: SF-295
Assay: NCI tumour cell line growth inhibition, 48 h
The source made the active and inactive calls. No stated cut-off is given here; in the data, active = GI50 up to about 1.1 µM and inactive = higher.
ASSAY READOUT: GI50

# MOLECULE, MEASURED
records = [
    ("CC(C)Nc1[nH]c(C(=O)c2ccccc2)c(N)c1C(=S)Nc1ccccc1", "> 100 µM (inactive)"),
    ("CC1=CCC[C@H]2[C@](C)(CC3=CC(=O)C4SCCSC4C3=O)[C@@H](C)CC[C@]12C (stereo not given in full)", "10.9 µM (inactive)"),
    ("Cc1cccc(N2C(=O)C3c4[nH]c5ccccc5c4C4CCC(C(C)(C)C)CC4C3C2=O)c1 (stereo not given)", "9.29 µM (inactive)"),
    ("O=C(c1ccccc1Cl)n1oc2ccccc2c1=O", "> 100 µM (inactive)"),
    ("CCOC(=O)C(=O)Nc1c(C)cccc1C", "> 100 µM (inactive)"),
    ("CCC(=O)Nc1cccc(/N=C/c2ccc(OC(=O)/C=C\\c3ccccc3)cc2)c1", "41.3 µM (inactive)"),
    ("Oc1ccc(Br)cc1/C=N/c1ccc(Oc2ccc(/N=C/c3cc(Br)ccc3O)cc2)cc1", "> 19.6 µM (inactive)"),
    ("Cc1ccc(/N=N\\c2c(O)ccc3cc(S(=O)(=O)O)ccc23)cc1", "> 100 µM (inactive)"),
    ("COc1nc2c(c(=O)n1C)N[C@H]1[C@H](OC(C)=O)[C@@H](OC(C)=O)CO[C@H]1N2", "> 100 µM (inactive)"),
    ("CCCCCCCCCCCC(=O)OCC1OC(n2cc(F)c(=O)[nH]c2=O)C(N)C(OC(=O)CCCCCCCCCCC)C1O (stereo not given)", "> 100 µM (inactive)"),
    ("CCOc1ccc2c(c1)[n+]([O-])c(-c1ccc(Cl)cc1)c(N)[n+]2[O-]", "> 100 µM (inactive)"),
    ("C=CCCCC12CCCc3cccc(c31)NC2=O (stereo not given)", "76.2 µM (inactive)"),
    ("O=C(CC1=Nc2nnc(-c3nnc4n3C(=O)C(CC(=O)c3cccnc3)=N4)n2C1=O)c1cccnc1", "> 100 µM (inactive)"),
    ("CC1=C(C(=O)CC(=O)C(=O)Nc2ccccc2C)Sc2ccccc2N1", "> 100 µM (inactive)"),
    ("CC(=O)OCC1OC(OC2CC3C(C)(C)C(OC(C)=O)CC[C@]3(C)C3CCC45CC4(CC[C@H]5C(C)CC(O)[C@@H](O)C(C)(C)O)[C@]23C)C(O)C(O)C1O (stereo not given in full)", "7.93 µM (inactive)"),
    ("N#CC12CC=C(c3ccccc3)N=C1NC(c1ccccc1)=CC2 (stereo not given)", "57.7 µM (inactive)"),
    ("O=C(Cc1ccc2ccccc2c1)NCc1ccc(C(=O)NCCc2ccccc2)cc1", "> 100 µM (inactive)"),
    ("O=c1c2cc(Br)ccc2[nH]c(=S)n1-c1ccc(Br)cc1", "45.5 µM (inactive)"),
    ("NNC(=O)Nc1cccnc1", "> 100 µM (inactive)"),
    ("C[n+]1cccc2c(=O)c3ccccc3oc21", "> 100 µM (inactive)"),
]

* * *

Listing: GI50 of selected compounds
Test system: KM12
Test: NCI tumour cell line growth inhibition, 48 h
Active and inactive are the calls of the source. Cut-off read from the data, not from the text of the source: active = GI50 up to about 1.1 µM and inactive = higher.
ASSAY READOUT: GI50

# COMPOUND, MEASURED
records = [
    ("Brc1ccc2[nH]cc(-c3csc(-c4c[nH]c5ccccc45)n3)c2c1", "2.3 µM (inactive)"),
    ("O=C(O)CSc1nnc(-c2ccc(O)cc2)[nH]1", "> 100 µM (inactive)"),
    ("C=CC(OC(C)=O)c1ccc(OC(C)=O)cc1 (stereo not given)", "5.57 µM (inactive)"),
    ("C=C(c1nc2ccc(Cl)cc2[nH]c1=O)C(O)c1ccc(C(O)C(=O)c2nc3ccc(Cl)cc3[nH]c2=O)cc1 (stereo not given)", "60.1 µM (inactive)"),
    ("CSc1ccc(C(=C=C=C(c2ccc(SC)s2)c2ccc(SC)s2)c2ccc(SC)s2)s1", "> 10 µM (inactive)"),
]

* * *

System: DU-145
Assay: NCI tumour cell line growth inhibition, 48 h
The source made the active and inactive calls. Rule as the data show it: active = GI50 up to about 1.1 µM and inactive = higher.
We begin with a simple list: items and their reported GI50.

# COMPOUND, GI50
measured = [
    ("C=CCSC1=N/C(=C\\c2ccccc2)C(=O)N1CC=C", "> 86.5 µM (inactive)"),
    ("C=C1C(=O)CC2C(=O)C(C)(O)CC/C=C(\\C)C(=O)CC12 (stereo unspecified)", "18.2 µM (inactive)"),
    ("COC(=O)c1ccccc1/C=C1/Cc2cccc(C)c2C1=O", "> 100 µM (inactive)"),
    ("O=C(/C(=N/Nc1cn[nH]c(=O)c1Cl)c1ccccc1)c1ccccc1", "20.5 µM (inactive)"),
    ("N=C(N)N/N=C/c1c(Cl)nc2n1CCS2", "90.2 µM (inactive)"),
    ("O=C1CCCC1CN1CCCC1 (stereo unspecified)", "30.5 µM (inactive)"),
    ("CCOC(=O)c1cn(-c2ccc(Cl)cc2)c(=O)n2c1nc1ccccc12", "> 100 µM (inactive)"),
    ("O=c1c(/C=C/c2c(O)ccc3ccccc23)nnc2sc(-c3cccc([N+](=O)[O-])c3)nn12", "8.38 µM (inactive)"),
    ("COc1cc2c(cc1OCCOS(C)(=O)=O)N=C[C@@H]1CCCN1C2=O", "27.3 µM (inactive)"),
    ("C/C(=N\\NC(=O)CC#N)C(CN1CCCCC1)C(c1ccccc1)c1c(O)c2ccccc2oc1=O (stereo unspecified)", "> 100 µM (inactive)"),
    ("Cc1ccc(O)c(-c2cc(-c3cccc(Cl)c3)c(C#N)c(N)n2)c1", "44.5 µM (inactive)"),
]

* * *

System: SR
Assay: NCI tumour cell line growth inhibition, 48 h
Active and inactive are the calls of the source. No stated cut-off is given here; in the data, active = GI50 up to about 1.1 µM and inactive = higher.

# COMPOUND, GI50
rows = [
    ("CCOC(=O)/C=C(\\C(=O)OCC)n1ccc(=O)n(Cc2cn(COCCOC(C)=O)nn2)c1=O", "21 µM (inactive)"),
    ("NC(=O)N/N=C(\\CCC(=O)N(Cc1ccccc1)Cc1ccccc1)CC(=O)c1ccc(F)cc1", "> 100 µM (inactive)"),
    ("N#Cc1c(O)c(/C=N/c2ncccn2)c(=O)n2c1[nH]c1ccccc12", "> 100 µM (inactive)"),
    ("NC(=O)N(O)c1cccc(Br)c1", "> 100 µM (inactive)"),
    ("COc1ccc(/C=C2\\SC(c3ccc(OC)cc3)N(NC(=O)Cc3ccccc3)C2=O)cc1 (stereo not given)", "> 100 µM (inactive)"),
    ("O=C(CCc1nnc(S)[nH]1)NC12CC3CC(CC(C3)C1)C2", "1 µM (active)"),
    ("OC[C@H](O)[C@@H](OCc1ccccc1)[C@H](NCc1ccccc1)c1cccs1", "> 100 µM (inactive)"),
    ("C=CC(OC(C)=O)c1ccc(OC(C)=O)cc1 (stereo not given)", "2.69 µM (inactive)"),
    ("C[n+]1cccc2c(=O)c3ccccc3oc21", "> 100 µM (inactive)"),
    ("COc1ccc(OC)c(C[P+](c2ccccc2)(c2ccccc2)c2ccccc2)c1", "0.601 µM (active)"),
    ("Cc1nn2c3c(nnc2c1C#N)C(=O)NN=C(N)S3", "> 100 µM (inactive)"),
    ("CCC(/C(=N/NC(=O)C[N+](C)(C)C)c1ccccc1)C1OC(=O)c2ccccc21 (stereo not given)", "> 100 µM (inactive)"),
    ("COc1nc(C(Cl)(Cl)Cl)c(Cl)c(O)c1Cl", "> 100 µM (inactive)"),
    ("CCCCCCCCCCCC(=O)OCC1OC(n2cc(F)c(=O)[nH]c2=O)C(N)C(OC(=O)CCCCCCCCCCC)C1O (stereo not given)", "34.4 µM (inactive)"),
    ("O=C(CCc1nnc(S)[nH]1)Nc1ccccc1Cl", "> 100 µM (inactive)"),
    ("CCOC(=O)/N=c1\\ss/c(=N\\C(=S)N(C)C)n1-c1ccccc1", "3.72 µM (inactive)"),
    ("COC(=O)C1=CC(=O)OC1(OO)c1ccccc1 (stereo not given)", "42.1 µM (inactive)"),
    ("O=C1NC(c2ccccc2Cl)Nc2ccccc21 (stereo not given)", "4.07 µM (inactive)"),
    ("CC(=O)OC1OC2C(NC(=O)OC(C)(C)C)C1CC2(OCc1ccccc1)OCc1ccccc1 (stereo not given)", "17.8 µM (inactive)"),
    ("O=c1c(/C=C/c2c(O)ccc3ccccc23)nnc2sc(-c3cccc([N+](=O)[O-])c3)nn12", "4.38 µM (inactive)"),
]
